Experiment: blood-stage malaria parasite viability loss – strain 3D7, DAPI fluorescence, 100 nL, primary screen (AID 1184);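 further: parasites grown inside human red blood cells in medium with human serum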
Settings: P. falciparum 3D7 growth, 3 d, higher = more signal
observable: z-score

• CC1=C2[C@@H](CCc3ccccc3)OB(O)C[C@@H]2[C@@H]2C(=O)N(C)C(=O)[C@@H]2C1 = 0.278
• COC(=O)[C@@H]1N=C(c2ccc(OCCCO)cc2)O[C@@H]1c1ccccc1 = -0.641
• CC(C)NC(=O)[C@@]1(c2ccc([N+](=O)[O-])cc2)CC(=O)N(C2CCCCC2)[C@@H]1c1ccc(CO)cc1 = -0.385
• NCCCCCNC(=O)[C@H]1C[C@H]2C(=O)N3CCC[C@H]3C(=O)N2[C@H]1c1cccc(OCCO)c1 = -1.24
• CCOc1cc(C(O)C2C=CC3C(=O)NC(=O)C3N2Nc2ccc(Cl)cc2Cl)ccc1O (centres undefined) = 0.0361
• CC(C)(C)OC(=O)COc1cccc(C(=O)CCN2CCOCC2)c1 = -0.367
• CCCCCN1CC=CC23O[C@@H]4/C=C\CCCOC(=O)C4[C@H]2C(=O)N(C(C)CO)[C@@H]3C1=O (some centres undefined) = 0.266
• CC(C)C(CO)N1C(=O)[C@@H]2[C@H]3C(=O)OCC=C[C@H]3OC23C=CCN(c2ccc(Cl)cc2)C(=O)[C@@H]13 (some centres undefined) = -0.485
• O=C(Cc1ccccc1)[C@H]1C2C=CCCC(c3ccccc3)=C2CN1Cc1ccccc1 (some centres undefined) = 0.979

* * *

Experiment: ATP-based viability of Huh7 replicon cells – cell-based, CellTiter-Glo luminescence, basal, 48 h, cytotoxicity control for HCV replication inhibitor project, primary screen (AID 1143);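 further: Huh7 hepatoma cells carrying a hepatitis C replication reporter with no stimulus; test concentration not given here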
Settings: higher = more signal, called active from +8 up or from −8 down
Classify as follows. Reported z-score greater than or equal to -0.3: yes. Reported z-score below: no.

* CC1CC/C=C\[C@H]2OC34C=CCN(C(C)(C)C)C(=O)[C@H]3N(CCCCCO)C(=O)[C@@H]4C2C(=O)O1 (stereo partly drawn) | yes
* C=C(COC)/C(=C/C[C@H](OC(=O)c1ccncc1)c1ccc(CO)o1)c1cnc2ccccc2c1 | yes
* CC(C)=C1C(=O)C(c2ccccc2)=C2CN3C(=O)N(CCc4ccccc4)C(=O)[C@]3(Cc3ccc(C(F)(F)F)cc3)[C@H]21 | yes
* C=C(C(=O)CC[C@H](OC(=O)c1ccccc1-c1ccccc1C(=O)O)c1cccc(OCCO)c1)C(C)C | yes
* O=C1OCCC/C=C\[C@H]2OC34C=CCN(c5ccc6ccccc6c5)C(=O)[C@H]3N(CCO)C(=O)[C@@H]4C12 (stereo partly drawn) | yes
* CCCC=C(CCC)[C@@H](NS(=O)(=O)c1ccc(C(F)(F)F)cc1)c1ccccc1 | no
* COC(=O)[C@@H]1N=C(c2ccc(OCCCO)cc2)O[C@@H]1c1ccccc1 | no
* C=CCC(OC(C)=O)[C@@H]1[C@@H](N(Cc2ccc(-c3ccccc3)cc2)C(=O)c2ccc(-c3ccccc3)cc2)c2cc(OCCCO)ccc2N1C(=O)c1ccc2ccccc2c1 (stereo partly drawn) | yes

* * *

Tested on: Neuregulin-1 EGF-like domain
Assay: small molecules binding NRG1 EGF domain – biochemical, small-molecule microarray, 635 nm fluorescence, primary screen (AID 1081)
Conditions: higher = more signal
The compounds listed here are annotated with their composite z-score.
observable: composite z-score

* COC(=O)[C@@]1(Cc2ccc(F)cc2)[C@H]2c3cc(C(=O)N4CCCC4)n(CCc4c[nH]c5ccccc45)c3C[C@H]2CN1C(=O)c1ccccc1 | 1.22
* CC(C)N1C(=O)c2ccccc2[C@@H](C(=O)NCCN2CCOCC2)[C@@H]1c1ccc(CO)cc1 | 1.28
* COc1cc(NN2C(C(O)c3cc(OC)c(OC)c(OC)c3)C=CC3C(=O)N(C)C(=O)C32)cc(OC)c1OC (centres undefined) | 1.23
* C=CC[C@@]1(C(=O)NCCCOC)N=C(c2ccc(OCCCO)cc2)O[C@@H]1c1ccccc1N=[N+]=[N-] | 1.21
* C=CCNC(=O)[C@@H]1[C@H]2C(=O)O[C@H](c3ccccc3)[C@H](c3ccccc3)N2[C@H](c2ccc(OCCO)cc2)[C@@]12C(=O)N(C(=O)OCCOC)c1ccc(C#Cc3ccc(OC)cc3)cc12 | 1.07
* CC(C)(C)OC(=O)COc1cccc(C(=O)CCN2CCOCC2)c1 | 0.187
* CC1CC/C=C\[C@H]2OC34C=CCN(Cc5ccccc5)C(=O)[C@H]3N(C(CO)C(C)C)C(=O)[C@@H]4C2C(=O)O1 (some centres undefined) | 1.39
* COCCOC(=O)N1C(=O)[C@@]2(c3cc(C#CC4(O)CCCCCC4)ccc31)[C@H](C(=O)N1CCc3cc(OC)c(OC)cc3C1)[C@H]1C(=O)O[C@H](c3ccccc3)[C@H](c3ccccc3)N1[C@@H]2c1ccc(OCCO)cc1 | 1.18
* COc1ccccc1CN1C(=O)c2ccccc2[C@](Cc2ccccc2I)(C(=O)O)[C@@H]1c1ccc(CO)cc1 | 1.27
* CO[C@H]1O[C@H](CO)[C@@H](OC(=O)Nc2ccc3c(c2)OCO3)[C@H](OC(=O)Nc2ccc3c(c2)OCO3)[C@@H]1OC(=O)Nc1ccc2c(c1)OCO2 | 1.2
* CCOC(=O)C[C@H]1[C@H](OC(=O)c2ccc(C(=O)c3ccccc3)cc2)[C@@H](NC(=O)C2CCCCC2)c2cc(OCCCO)ccc2N1C(=O)c1ccc2ccccc2n1 | 0.722
* CCOC(=O)C[C@H]1[C@H](OC(=O)c2ccc(C(=O)c3ccccc3)cc2)[C@@H](NC(=O)CC(C)C)c2cc(OCCCO)ccc2N1C(=O)c1ccccc1 | 0.996
* Cc1cc(C)c(C(O)C2C=CC3C(=O)N(c4ccccc4)C(=O)C3N2Nc2ccccc2F)c(C)c1 (centres undefined) | 1.09
* CC(C)C(CO)N1C(=O)[C@@H]2[C@H]3C(=O)OCC=C[C@H]3OC23C=CCN(c2ccc(Cl)cc2)C(=O)[C@@H]13 (some centres undefined) | 0.436
* COC(=O)C1(CC(C)C)C=C2C(=C(c3ccccc3)C(=O)C2C)CN1 (centres undefined) | 0.78
* Oc1ccc2cc[n+](Cc3cc4c(cc3Br)OCO4)cc2c1 | 0.565
* COc1ccc(CCNC(=O)[C@@H]2c3ccccc3C(=O)N(C3CCCCC3)[C@H]2c2ccc(CO)cc2)cc1 | 1.24
* COCC(=C=CC[C@H](O)c1ccccc1OCCO)C[C@H](O)c1ccccn1 | 0.0876
* COc1ccc([Si](C)(C)[C@@H]2[C@@H](CCO)O[C@]3(C(=O)N(Cc4ccccc4)c4ccc(NC(=O)[C@H](C)O)cc43)[C@H]2C)cc1 | 1.13
* Cc1ccc(S[C@]2(C(=O)NCC(F)(F)F)CC(=O)N(Cc3cc(C(F)(F)F)cc(C(F)(F)F)c3)[C@@H]2c2ccc(CO)cc2I)cc1 | 0.434
* CC#CCO[Si](C#Cc1ccccc1)(C(C)C)C(C)C | -0.665
* CCCN1C(=O)[C@]2(Cc3ccccc31)N=C(c1ccc(OCCCO)cc1)O[C@@H]2c1ccccc1 | 1.23
* CO[C@H]1O[C@H](CO)[C@@H](OC(=O)CCc2ccccc2)[C@@H]2OC(=O)[C@@H](Cc3ccccc3)C/C=C/C[C@H](Cc3ccccc3)C(=O)O[C@@H]12 | 0.756
* CCCCC[C@H]1OC[C@@]23C=C(Br)[C@@H](CC12)[C@@]1(CO1)C3=O (some centres undefined) | -0.497
* COc1ccc([Si](C)(C)[C@@H]2[C@@H](CCO)O[C@]3(C(=O)N(Cc4ccccc4)c4ccc(N5C(=O)c6cccc7cccc5c67)cc43)[C@H]2C)cc1 | 0.609
* NC(=O)NCC#Cc1ccc2c(c1)[C@]1(C(=O)N2)[C@H](c2ccccc2OCCO)N2[C@H](c3ccccc3)[C@H](c3ccccc3)OC(=O)[C@H]2[C@@H]1C(=O)O | -0.0034
* O=C(Cc1ccccc1)[C@H]1C2C=CCCC(c3ccccc3)=C2CN1Cc1ccccc1 (some centres undefined) | -0.122
* O=C(NCc1ccc(F)cc1)[C@H]1C[C@H]2C(=O)NCC(=O)N2[C@H]1c1ccc(O)cc1 | 1.3
* CCCC=C(CCC)[C@@H](NS(=O)(=O)CC12CCC(CC1=O)C2(C)C)c1ccc(C(=O)OC)cc1 (some centres undefined) | 1.09

* * *

Target: Follistatin (Homo sapiens) (UniProt P19883)
Sequence (P19883 whole entry, looked up): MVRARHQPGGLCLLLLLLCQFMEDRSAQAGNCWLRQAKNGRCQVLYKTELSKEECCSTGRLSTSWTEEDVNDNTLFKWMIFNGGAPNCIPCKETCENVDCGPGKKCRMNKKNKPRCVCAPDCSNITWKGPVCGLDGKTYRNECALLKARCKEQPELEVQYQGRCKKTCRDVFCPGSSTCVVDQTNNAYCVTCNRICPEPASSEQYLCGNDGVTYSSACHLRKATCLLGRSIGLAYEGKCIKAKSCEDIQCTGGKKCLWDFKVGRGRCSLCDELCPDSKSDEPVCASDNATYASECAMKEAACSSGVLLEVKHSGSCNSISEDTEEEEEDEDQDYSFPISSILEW
Assay: FST protein binding to printed compounds – biochemical, small-molecule microarray, 635/667 nm fluorescence, primary screen (AID 1132)
Conditions: 635 nm fluorescence, higher = more signal
observable: composite z-score

• COC(=O)[C@@]1(Cc2ccc(F)cc2)[C@H]2c3cc(C(=O)N4CCCC4)n(Cc4ccc(C)c(F)c4F)c3C[C@H]2CN1C(=O)c1ccccc1 = -0.115
• COc1ccccc1CN1C(=O)c2ccccc2[C@](Cc2ccccc2I)(C(=O)O)[C@@H]1c1ccc(CO)cc1 = 1.26
• COC(=O)C/C=C/C[C@]1(O)C(=O)N(C)c2ccccc21 = 0.721
• COc1cc(NN2C(C(O)c3ccc(N(C)C)cc3)C=CC3C(=O)N(c4ccccc4)C(=O)C32)cc(OC)c1OC (centres undefined) = 1.22
• O=C1C2C=CC(C(O)C3CC=CCC3)N(Nc3ccccc3)C2C(=O)N1c1ccccc1 (centres undefined) = 1.27
• C[N+](C)(C)CCCCCCNC(=O)[C@@H]1C[C@@H]2C(=O)N3CCC[C@H]3C(=O)N2[C@@H]1c1ccc(O)cc1 = 1.4
• CCOC(=O)C[C@H]1[C@H](OC(=O)c2ccc(C(=O)c3ccccc3)cc2)[C@@H](NC(=O)C2CCCCC2)c2cc(OCCCO)ccc2N1C(=O)c1ccc2ccccc2n1 = 0.796
• O=C1OCCC=C[C@H]2OC34C=CCN(c5ccc6ccccc6c5)C(=O)[C@H]3N(CCCO)C(=O)[C@@H]4C12 (some centres undefined) = -1.25
• COC(=O)C1=CC(CCCO)=CC(c2cccs2)N(Cc2cccc(OC(F)(F)F)c2)C=C1C(=O)OC (centres undefined) = 1.23
• COCCOC(=O)N1C(=O)[C@@]2(c3cc(C#CC4=CCCCC4)ccc31)[C@H](C(=O)Nc1nc3ccccc3s1)[C@H]1C(=O)O[C@H](c3ccccc3)[C@H](c3ccccc3)N1[C@@H]2c1ccc(O)cc1 = 1.39
• NC(=O)NCC#Cc1ccc2c(c1)[C@]1(C(=O)N2)[C@H](c2ccccc2OCCO)N2[C@H](c3ccccc3)[C@H](c3ccccc3)OC(=O)[C@H]2[C@@H]1C(=O)O = 0.728
• CCCN1C(=O)[C@]2(Cc3ccccc31)N=C(c1ccc(OCCCO)cc1)O[C@@H]2c1ccccc1 = 1.3
• CN(C)c1ccc(C(O)C2C=CC3C(=O)NC(=O)C3N2Nc2ccccn2)cc1 (centres undefined) = 1.32
• COC(=O)C(CC#Cc1ccc2c(c1)[C@]1(C(=O)N2)[C@H](c2ccc(O)cc2)N2[C@H](c3ccccc3)[C@H](c3ccccc3)OC(=O)[C@H]2[C@@H]1C(=O)NC[C@H](O)c1ccccc1)C(=O)OC = 1.21
